Reference source: patent US12281114B2

system: acute nitroglycerin (NTG) migraine model in rats; experiment: Acute nitroglycerin (NTG) rat migraine model, periorbital von Frey threshold; assay type: in vivo; settings: male Sprague Dawley rats, 10 mg/kg NTG i.p., 30 mg/kg test compound, 90 min; 50% periorbital threshold after compound / baseline x 100
Label true (1) when Efficacy (%) >= 80%; otherwise false (0).

Solved cases below.
[[record]]
compound = "Cn1cc(-c2cccc(F)c2-c2nc3cc(C(=O)NC45COC(C)(C4)C5)ccn3c2C#N)c(F)n1"
tgt = "acute nitroglycerin (NTG) migraine model in rats"
label_value = "true (1)"

[[record]]
compound = "Cn1cc(-c2cccc(F)c2-c2nc3cc(C(=O)N[C@]45CC[C@](CO)(C4)OC5)ccn3c2Cl)c(F)n1 (single isomer, unassigned; second eluting)"
tgt = "acute nitroglycerin (NTG) migraine model in rats"
label_value = "true (1)"

[[record]]
compound = "Cc1nn(C)cc1-c1cc(F)cc(F)c1-c1nc2cc(C(=O)N[C@@H]3CO[C@H]4[C@@H]3OC[C@H]4O)ccn2c1Cl"
tgt = "acute nitroglycerin (NTG) migraine model in rats"
label_value = "false (0)"


Turning now to a further record.
Inquiry: Identify whether the reported Efficacy (%) of the following compound is 80% or greater: `Cn1cc(-c2cccc(F)c2-c2nc3cc(C(=O)N4CCC5(CC4)CC(C)(O)C5)ccn3c2Cl)cn1`
Reply text: true (1)

###

biological target: human NK3 (Homo sapiens, UniProt P29371); assay: FLIPR calcium assay in antagonist mode (NKB EC70 challenge); conditions: stable cell line expressing human recombinant NK3; antagonist mode vs EC70 of NKB agonist
Could you please report measured pIC50 for the items listed next?
Give bare numbers, as −log10 of the molar value.

Record excerpt, results attached:
[[record]]
smiles_text = "Cn1cc(-c2cccc(F)c2-c2nc3cc(C(=O)N4CC5(C4)CC(C)(O)C5)ccn3c2Cl)c(F)n1"
recorded_result = 8.86

[[record]]
smiles_text = "Cc1nn(C)cc1-c1c(F)c(F)cc(F)c1-c1nc2cc(C(=O)N3C[C@@H]4C[C@H]3C(=O)N4)ccn2c1Cl"
recorded_result = 8.72


Okay, here is my list. What is pIC50 for each of these?
1. Cn1cc(-c2cccc(F)c2-c2nc3cc(C(=O)NCC45CC(CO)(CCO4)C5)ccn3c2Cl)c(F)n1
2. Cn1cc(-c2ccc(F)c(F)c2-c2nc3cc(C(=O)NC45COC(C)(C4)C5)ccn3c2C#N)c(F)n1

Reply text:
9.51
8.22

Okay, here is my list. What is pIC50 for each of these?
1. Cc1nc(N)ccc1CNC(=O)c1ccn2c(Cl)c(-c3ccccc3-c3cn(C)nc3C)nc2c1
2. Cc1nn(C)cc1-c1ccccc1-c1nc2cc(C(=O)NCCC(C)(C)O)ccn2c1Cl
3. C[C@]1(O)C[C@H](NC(=O)c2ccn3c(Cl)c(-c4ccccc4-c4cn(C(F)(F)F)nc4Cl)nc3c2)C1

Reply text:
1: 8.56; 2: 8.73; 3: 8.60

###

Molecular target: human NK3 (Homo sapiens)
Sequence (P29371 1-465): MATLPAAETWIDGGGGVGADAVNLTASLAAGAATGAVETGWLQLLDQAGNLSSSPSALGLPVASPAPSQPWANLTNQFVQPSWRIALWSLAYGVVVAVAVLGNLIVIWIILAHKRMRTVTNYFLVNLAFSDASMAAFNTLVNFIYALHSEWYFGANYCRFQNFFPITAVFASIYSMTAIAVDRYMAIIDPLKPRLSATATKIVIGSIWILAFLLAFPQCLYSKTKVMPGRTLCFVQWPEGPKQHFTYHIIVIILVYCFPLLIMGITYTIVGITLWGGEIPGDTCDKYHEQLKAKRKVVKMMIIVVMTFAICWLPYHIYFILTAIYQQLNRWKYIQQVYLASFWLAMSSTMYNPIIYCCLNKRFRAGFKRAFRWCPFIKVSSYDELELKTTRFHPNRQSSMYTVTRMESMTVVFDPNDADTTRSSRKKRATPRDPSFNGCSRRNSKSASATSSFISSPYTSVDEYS
Assay: FLIPR calcium assay in antagonist mode (NKB EC70 challenge)
Conditions: stable cell line expressing human recombinant NK3; antagonist mode vs EC70 of NKB agonist
Could you please report measured pIC50 for the items listed next?
Give bare numbers, as −log10 of the molar value.

Record excerpt, results attached:
[[record]]
smiles_text = "Cc1nn(C)cc1-c1ccccc1-c1nc2cc(C(=O)N3CC(=O)N[C@H](CO)C3)ccn2c1Cl"
recorded_result = 8.42

[[record]]
smiles_text = "O=C(NC1CS(=O)(=O)C1)c1ccn2c(Cl)c(-c3c(F)cc(F)cc3-c3c[nH]nc3F)nc2c1"
recorded_result = 8.18

[[record]]
smiles_text = "C[C@]1(O)C[C@H](NC(=O)c2ccn3c(Cl)c(-c4ccccc4-c4cn(C5CC5)nc4Cl)nc3c2)C1"
recorded_result = 8.85

[[record]]
smiles_text = "Cc1nn(C)cc1-c1cccc(F)c1-c1nc2cc(C(=O)NC3CCNCC3)ccn2c1Cl"
recorded_result = 8.30

[[record]]
smiles_text = "Cc1nn(C)cc1-c1ccccc1-c1nc2cc(C(=O)N[C@@H]3C[C@H]3CO)ccn2c1Cl"
recorded_result = 8.91

[[record]]
smiles_text = "Cc1nn(C)cc1-c1cncc(F)c1-c1nc2cc(C(=O)N[C@H]3C[C@@](C)(O)C3)ccn2c1Cl"
recorded_result = 8.49


Okay, here is my list. What is pIC50 for each of these?
1. Cn1cc(-c2cccc(F)c2-c2nc3cc(C(=O)N4CCC5(CC4)CC(C)(O)C5)ccn3c2Cl)cn1
2. Cc1nn(C)cc1-c1ccccc1-c1nc2cc(C(=O)NC[C@H]3C[C@@](C)(O)C3)ccn2c1Cl

Reply text:
[8.37, 9.11]

Okay, here is my list. What is pIC50 for each of these?
1. Cc1nn(C)cc1-c1cccc(F)c1-c1nc2cc(C(=O)N3CCNCC3)ccn2c1Cl
2. Cc1nn(C)cc1-c1ccccc1-c1nc2cc(C(=O)N[C@H]3C[C@](C)(C(=O)O)C3)ccn2c1C
3. Cc1nn(C)cc1-c1cc(F)cc(F)c1-c1nc2cc(C(=O)N3CC4(O)CC3C4)ccn2c1Cl
4. Cc1nn(C)cc1-c1ccccc1-c1nc2cc(C(=O)N3C[C@H](N)[C@@H](O)C3)ccn2c1Cl
5. Cc1nn(C)cc1-c1ccccc1-c1nc2cc(C(=O)N[C@@H]3CO[C@H]4[C@@H]3OC[C@H]4O)ccn2c1C#N
6. Cn1cc(-c2cccc(F)c2-c2nc3cc(C(=O)NC[C@H]4C[C@@](C)(O)C4)ccn3c2Cl)c(F)n1
7. Cn1cc(-c2ccc(F)c(F)c2-c2nc3cc(C(=O)N[C@H]4C[C@](C)(O)C4)ccn3c2Cl)c(F)n1

Reply text:
8.33
8.15
8.48
7.82
8.39
9.38
8.58

Okay, here is my list. What is pIC50 for each of these?
1. Cc1nn(C)cc1-c1ccccc1-c1nc2cc(C(=O)N[C@H]3CO[C@H]4[C@@H]3OC[C@H]4O)ccn2c1C
2. Cn1cc(-c2ccccc2-c2nc3cc(C(=O)NC45CCC(O)(CC4)C5)ccn3c2Cl)c(F)n1
3. Cc1nn(C)cc1-c1ccccc1-c1nc2cc(C(=O)N3CCc4n[nH]nc4C3)ccn2c1Cl
4. CCn1ncc(-c2ccccc2-c2nc3cc(C(=O)N[C@@H]4CO[C@H]5[C@@H]4OC[C@H]5O)ccn3c2Cl)c1C
5. Cn1cc(-c2cccc(F)c2-c2nc3cc(C(=O)NCC45CC(CO)(CO4)C5)ccn3c2Cl)c(F)n1

Reply text:
8.24
8.77
8.16
8.66
9.34
